Can you tell me Internalized [%] for the items I'm about to list?
Tested on: CXCR4-expressing Chem_1 cells
Experiment: Determination of internalization, dual tracer with 125I-Fc-131
Assay type: cell-based
Details: 120 min; of total cellular activity
Non-standard residues stand in square brackets, D forms with d. Residues, ends and D or L forms follow the SMILES beside them. Groups on a side chain read outwards from the residue. *: point of attachment. DOTA = O=C(O)CN1CCN(CC(=O)O)CCN(CC(=O)*)CCN(CC(=O)O)CC1; dTyr(3-I) = N[C@H](Cc1ccc(O)c(I)c1)C(=O)O; 2Nal = N[C@@H](Cc1ccc2ccccc2c1)C(=O)O; dNMeOrn = CN[C@H](CCCN)C(=O)O; 4Amb = NCc1ccc(C(=O)O)cc1; 4Abz = Nc1ccc(C(=O)O)cc1; dDap = NC[C@@H](N)C(=O)O
Your answer should be a number followed by the unit of measure.

Give the reported value of Internalized [%] for this record: C[C@@H](NC(=O)[C@@H](CCCNC(=N)N)NC(=O)[C@@H](CN)NC(=O)CN1CCN(CC(=O)O)CCN(CC(=O)O)CCN(CC(=O)O)CC1)C(=O)NCc1ccc(C(=O)NCCC[C@@H]2C(=O)N[C@@H](CCCNC(=N)N)C(=O)N[C@@H](Cc3ccc4ccccc4c3)C(=O)NCC(=O)N[C@H](Cc3ccc(O)c(I)c3)C(=O)N2C)cc1 [CXCR4-DOTA-2 [Lu]] (cyclo([dTyr(3-I)][dNMeOrn]([4Amb-dA-dR-dDap-DOTA])R[2Nal]G))
27.3 ± 3.62%

Give the reported value of Internalized [%] for this record: C[C@@H](NC(=O)[C@@H](CCCNC(=N)N)NC(=O)[C@@H](CN)NC(=O)CN1CCN(CC(=O)O)CCN(CC(=O)O)CCN(CC(=O)O)CC1)C(=O)Nc1ccc(C(=O)NCCC[C@@H]2C(=O)N[C@@H](CCCNC(=N)N)C(=O)N[C@@H](Cc3ccc4ccccc4c3)C(=O)NCC(=O)N[C@H](Cc3ccc(O)cc3)C(=O)N2C)cc1 [CXCR4-DOTA-3 [Lu]] (cyclo([dY][dNMeOrn]([4Abz-dA-dR-dDap-DOTA])R[2Nal]G))
38.4 ± 1.78%
